Reported values of kon for individual entries
MEASURED TARGET: T1, monkey IL-25 expressed with a C-terminal myc-myc-hexahistidine tag (M. fascicularis (cynomolgus monkey))
T1 construct: also called Monkey IL-25-MMH; MfIL-25-MMH
T1 chain: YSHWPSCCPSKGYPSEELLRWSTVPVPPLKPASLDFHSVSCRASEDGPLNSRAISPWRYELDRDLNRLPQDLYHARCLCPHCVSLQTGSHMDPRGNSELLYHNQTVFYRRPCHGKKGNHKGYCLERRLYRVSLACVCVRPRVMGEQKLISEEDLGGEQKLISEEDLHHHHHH
ASSAY PROTOCOL: SPR Biacore, antibody captured, 37C;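 note: biacore 4000 surface plasmon resonance biosensor measuring binding of IL-25-MMH to purified anti-IL-25 antibodies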
// units = M⁻¹ s⁻¹; emit number, no label

Previously resolved entries follow.
H4H10901P (antibody, human IgG4, V domains shown, H4H prefix = human IgG4 Fc) VH: QLQLQESGPGLVRPSETLSLTCSVSSGSIRSSNYYWGWIRQPPGKGLEWIGNIYYSGNTFYNPSLKGRVTISVDTSKNQFSLKLSSVTATDTAVYYCARQGYSDYELNWFDPWGQGTLVTVSS VL: DIVMTQSPDSLVLSLGERATFNCKSSQSVLDSSNNKNYLAWYQQKPGQPPKLLIYWASTRESGVPDRFSGSGSGTDFSLTISSLQAEDVALYYCQQFYNSPWTFGQGTKVEIK ... 3.55e+06
H4H10897P (antibody, human IgG4, V domains shown, H4H prefix = human IgG4 Fc) VH: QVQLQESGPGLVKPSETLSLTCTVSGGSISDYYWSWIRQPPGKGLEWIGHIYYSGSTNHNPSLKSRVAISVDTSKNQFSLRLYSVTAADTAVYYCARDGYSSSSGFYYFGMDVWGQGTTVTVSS VL: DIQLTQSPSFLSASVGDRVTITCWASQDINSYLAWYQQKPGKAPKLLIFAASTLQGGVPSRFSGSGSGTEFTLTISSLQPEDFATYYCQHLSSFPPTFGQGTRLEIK ... 1.22e+06

// next entry
// kon lookup, binder = H4H10883P (antibody, human IgG4, V domains shown, H4H prefix = human IgG4 Fc) VH: QVQLQESGPGLVKSSETLSLTCTVSGGSISSYYWSWIRQPPGKGLEWIGFIYYSGSTNYNPSLKSRVTFSVDTSKNHFSLKLNSVTATDTAVYYCARHYFDSGTYELGPFDYWGQGTLVTVSS VL: DIVMTQSPDSLAVSLGERATINCKSSQNILLTSSNKNYLTWYQQKPGQPPKLLIYWASIRESGVPDRFSGSGSGTDFTLTISSLQAEDVALYFCQQYYITPFTFGPGTKVDIK , result: 1.75e+06
